- target-desc: GR (Homo sapiens, UniProt P04150)
- Construct: endogenous in cells; host or cells: A549 (human lung carcinoma, ECACC No. 86012804), stably transfected with reporter plasmids only
- Sequence (P04150 whole entry): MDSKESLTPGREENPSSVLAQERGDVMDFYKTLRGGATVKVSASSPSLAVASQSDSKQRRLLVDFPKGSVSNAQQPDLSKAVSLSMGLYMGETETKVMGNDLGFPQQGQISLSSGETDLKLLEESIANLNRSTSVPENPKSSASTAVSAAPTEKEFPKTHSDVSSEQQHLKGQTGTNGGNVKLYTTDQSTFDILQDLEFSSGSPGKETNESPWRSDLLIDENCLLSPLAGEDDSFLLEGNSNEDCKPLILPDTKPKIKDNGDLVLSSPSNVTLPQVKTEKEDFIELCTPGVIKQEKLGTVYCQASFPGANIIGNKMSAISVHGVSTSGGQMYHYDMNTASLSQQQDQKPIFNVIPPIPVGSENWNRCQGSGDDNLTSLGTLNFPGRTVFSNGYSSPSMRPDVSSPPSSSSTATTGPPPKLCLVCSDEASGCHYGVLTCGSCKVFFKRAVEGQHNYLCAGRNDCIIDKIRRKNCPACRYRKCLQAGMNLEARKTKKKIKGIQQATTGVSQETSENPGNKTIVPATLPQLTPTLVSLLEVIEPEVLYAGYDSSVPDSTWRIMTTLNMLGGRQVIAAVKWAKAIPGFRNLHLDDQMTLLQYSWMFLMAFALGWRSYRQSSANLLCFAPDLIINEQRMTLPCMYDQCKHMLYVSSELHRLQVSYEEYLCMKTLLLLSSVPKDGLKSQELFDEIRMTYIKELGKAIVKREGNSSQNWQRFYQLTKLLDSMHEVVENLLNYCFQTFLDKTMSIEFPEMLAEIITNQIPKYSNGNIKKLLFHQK
- protocol-notes: GR Functional Assay - NFκB Assay (A549 SPAP cells, TNFα stimulated)
- Format: cell-based
- measurement-conditions: agonists; A549 SPAP cells; read-out: average maximum asymptote in the NFkB assay
measure-name: Emax

Query: Look at this compound and give its reported Emax. CCN(CC(O)(CNC(=O)c1cnn(-c2ccc(Cl)cc2)c1N)C(F)(F)F)C(=O)c1ccccc1 (racemic) [Example 32 (racemic)]
Reply: ≥ 40%

Query: Quick one: CCN(CC(O)(CNC(=O)c1cnn(-c2ccc(F)cc2)c1N)C(F)(F)F)C(=O)c1ccc(F)cc1Cl (racemic) [Example 23 (racemic)]
Reply: ≥ 40%

Query: Quick one: Nc1c(C(=O)NCC(O)(CN(CCF)C(=O)c2ccccc2F)C(F)(F)F)cnn1-c1ccc(F)cc1 (racemic) [Example 2 (racemic)]
Reply: ≥ 40%

FYI, the data here is from patent US20100035926A1.
